test system: Staphylococcus aureus; assay: Antibacterial activity against methicillin-resistant Staphylococcus aureus ATCC 33591 incubated for 12 to 16 hrs by microtiter method; type: functional; conditions: time 12-16 hrs
// reported MIC per item
Note: unit mg/L is implicit; provide only the numeric part.

# example entries with known answers
substanceSmiles: CCCCCCCCCCCCCCCCCC(=O)N[C@@H](CCCCN)C(=O)N[C@@H](CCCCN)CN(CC(N)=O)S(=O)(=O)Cc1ccccc1
testTarget: Staphylococcus aureus
MIC (mg/L): 2
--
substanceSmiles: CCCCCCCCCCCCCCCC(=O)N[C@@H](CCCCN)C(=O)N[C@@H](CCCCN)CN(CC(=O)N[C@@H](CCCCN)CN(CC(N)=O)S(=O)(=O)Cc1ccccc1)S(=O)(=O)Cc1ccccc1
testTarget: Staphylococcus aureus
MIC (mg/L): 2

Shift focus to the following entry.
### Prompt Give recorded MIC. CCCCCCCCCCCCCCCCNC(=O)CN(C[C@H](CCCCN)NC(=O)[C@@H](N)CCCCN)S(=O)(=O)Cc1ccccc1
### Response 5

====

assay: Hemolytic activity against RBC (unknown origin); assay type: ADME, cell-based, Erythrocyte; conditions: red blood cells (erythrocytes)
propertyLabel: HC50 (µg/mL)
# output: bare number, implied unit µg/mL

substanceSmiles: CCCCCCCCCCCCCCCC(=O)N[C@@H](CCCCN)C(=O)N[C@@H](CCCCN)CN(CC(=O)N[C@@H](CCCCN)CN(CC(N)=O)S(=O)(=O)Cc1ccccc1)S(=O)(=O)Cc1ccccc1
endpointUnit: µg/mL
HC50: 50

substanceSmiles: CCCCCCCCCCCCCC(=O)N[C@@H](CCCCN)C(=O)N[C@@H](CCCCN)CN(CC(=O)N[C@@H](CCCCN)CN(CC(N)=O)S(=O)(=O)Cc1ccccc1)S(=O)(=O)Cc1ccccc1
endpointUnit: µg/mL
HC50: 100

Could you now consider this next compound?
### Prompt Give me measured HC50, please, for this compound: CCCCCCCCCCCCCC(=O)N[C@@H](CCCCN)C(=O)N[C@@H](CCCCN)CN(CC(N)=O)S(=O)(=O)Cc1ccccc1
### Response 125

====

test system: Staphylococcus aureus; assay: Antibacterial activity against methicillin-resistant Staphylococcus aureus ATCC 33591 incubated for 12 to 16 hrs by microtiter method; format: functional; settings: time 12-16 hrs
propertyLabel: MIC (µg/mL)
The reply should be a number in µg/mL, with the unit left off.

Example cases with answers are listed next.
substanceSmiles: CCCCCCCCCCCCCC(=O)N[C@@H](CCCCN)C(=O)N[C@@H](CCCCN)CN(CC(N)=O)S(=O)(=O)Cc1ccccc1
MIC (µg/mL): 5

substanceSmiles: CCCCCCCCCCCCCC(=O)N[C@@H](CCCCN)C(=O)N[C@@H](CCCCN)CN(CC(=O)N[C@@H](CCCCN)CN(CC(N)=O)S(=O)(=O)Cc1ccccc1)S(=O)(=O)Cc1ccccc1
MIC (µg/mL): 2

### Prompt Hello, please tell me recorded MIC for this one: CCCCCCCCCCCCCCCC(=O)N[C@@H](CCCCN)CN(CC(=O)N[C@@H](CCCCN)CN(CC(N)=O)S(=O)(=O)Cc1ccccc1)S(=O)(=O)Cc1ccccc1
### Response 8

====

Attribute: MIC
test system: Staphylococcus aureus; experiment: Antibacterial activity against methicillin-resistant Staphylococcus aureus ATCC 33591 incubated for 12 to 16 hrs by microtiter method; assay type: functional; settings: time 12-16 hrs
Kindly answer with a numeric value in µg/mL, unit omitted.

Below, 3 molecules whose answers are already recorded.
substanceSmiles: CCCCCCCCCCCC(=O)N[C@@H](CCCCN)C(=O)N[C@@H](CCCCN)CN(CC(N)=O)S(=O)(=O)Cc1ccccc1
testTarget: Staphylococcus aureus
propertyLabel: MIC
recordedMeasurement: 20
--
substanceSmiles: CCCCCCCCCCCCCCCC(=O)N[C@@H](CCCCN)CN(CC(N)=O)S(=O)(=O)Cc1ccccc1
testTarget: Staphylococcus aureus
propertyLabel: MIC
recordedMeasurement: 5
--
substanceSmiles: CCCCCCCCCCCCCCCCNC(=O)CN(C[C@@H](N)CCCCN)S(=O)(=O)Cc1ccccc1
testTarget: Staphylococcus aureus
propertyLabel: MIC
recordedMeasurement: 5

API: the following record is the query input.
### Prompt State its MIC: CCCCCCCCCCCCCCCC(=O)N[C@@H](CCCCN)C(=O)N[C@@H](CCCCN)CN(CC(N)=O)S(=O)(=O)Cc1ccccc1
### Response 5
